- System name: T1, Clostridium difficile toxin A (TcdA) (Clostridium difficile, UniProt P16154 1-2710)
- T1 construct: mature; also called full-length TcdA
- T1 sequence (P16154 whole entry): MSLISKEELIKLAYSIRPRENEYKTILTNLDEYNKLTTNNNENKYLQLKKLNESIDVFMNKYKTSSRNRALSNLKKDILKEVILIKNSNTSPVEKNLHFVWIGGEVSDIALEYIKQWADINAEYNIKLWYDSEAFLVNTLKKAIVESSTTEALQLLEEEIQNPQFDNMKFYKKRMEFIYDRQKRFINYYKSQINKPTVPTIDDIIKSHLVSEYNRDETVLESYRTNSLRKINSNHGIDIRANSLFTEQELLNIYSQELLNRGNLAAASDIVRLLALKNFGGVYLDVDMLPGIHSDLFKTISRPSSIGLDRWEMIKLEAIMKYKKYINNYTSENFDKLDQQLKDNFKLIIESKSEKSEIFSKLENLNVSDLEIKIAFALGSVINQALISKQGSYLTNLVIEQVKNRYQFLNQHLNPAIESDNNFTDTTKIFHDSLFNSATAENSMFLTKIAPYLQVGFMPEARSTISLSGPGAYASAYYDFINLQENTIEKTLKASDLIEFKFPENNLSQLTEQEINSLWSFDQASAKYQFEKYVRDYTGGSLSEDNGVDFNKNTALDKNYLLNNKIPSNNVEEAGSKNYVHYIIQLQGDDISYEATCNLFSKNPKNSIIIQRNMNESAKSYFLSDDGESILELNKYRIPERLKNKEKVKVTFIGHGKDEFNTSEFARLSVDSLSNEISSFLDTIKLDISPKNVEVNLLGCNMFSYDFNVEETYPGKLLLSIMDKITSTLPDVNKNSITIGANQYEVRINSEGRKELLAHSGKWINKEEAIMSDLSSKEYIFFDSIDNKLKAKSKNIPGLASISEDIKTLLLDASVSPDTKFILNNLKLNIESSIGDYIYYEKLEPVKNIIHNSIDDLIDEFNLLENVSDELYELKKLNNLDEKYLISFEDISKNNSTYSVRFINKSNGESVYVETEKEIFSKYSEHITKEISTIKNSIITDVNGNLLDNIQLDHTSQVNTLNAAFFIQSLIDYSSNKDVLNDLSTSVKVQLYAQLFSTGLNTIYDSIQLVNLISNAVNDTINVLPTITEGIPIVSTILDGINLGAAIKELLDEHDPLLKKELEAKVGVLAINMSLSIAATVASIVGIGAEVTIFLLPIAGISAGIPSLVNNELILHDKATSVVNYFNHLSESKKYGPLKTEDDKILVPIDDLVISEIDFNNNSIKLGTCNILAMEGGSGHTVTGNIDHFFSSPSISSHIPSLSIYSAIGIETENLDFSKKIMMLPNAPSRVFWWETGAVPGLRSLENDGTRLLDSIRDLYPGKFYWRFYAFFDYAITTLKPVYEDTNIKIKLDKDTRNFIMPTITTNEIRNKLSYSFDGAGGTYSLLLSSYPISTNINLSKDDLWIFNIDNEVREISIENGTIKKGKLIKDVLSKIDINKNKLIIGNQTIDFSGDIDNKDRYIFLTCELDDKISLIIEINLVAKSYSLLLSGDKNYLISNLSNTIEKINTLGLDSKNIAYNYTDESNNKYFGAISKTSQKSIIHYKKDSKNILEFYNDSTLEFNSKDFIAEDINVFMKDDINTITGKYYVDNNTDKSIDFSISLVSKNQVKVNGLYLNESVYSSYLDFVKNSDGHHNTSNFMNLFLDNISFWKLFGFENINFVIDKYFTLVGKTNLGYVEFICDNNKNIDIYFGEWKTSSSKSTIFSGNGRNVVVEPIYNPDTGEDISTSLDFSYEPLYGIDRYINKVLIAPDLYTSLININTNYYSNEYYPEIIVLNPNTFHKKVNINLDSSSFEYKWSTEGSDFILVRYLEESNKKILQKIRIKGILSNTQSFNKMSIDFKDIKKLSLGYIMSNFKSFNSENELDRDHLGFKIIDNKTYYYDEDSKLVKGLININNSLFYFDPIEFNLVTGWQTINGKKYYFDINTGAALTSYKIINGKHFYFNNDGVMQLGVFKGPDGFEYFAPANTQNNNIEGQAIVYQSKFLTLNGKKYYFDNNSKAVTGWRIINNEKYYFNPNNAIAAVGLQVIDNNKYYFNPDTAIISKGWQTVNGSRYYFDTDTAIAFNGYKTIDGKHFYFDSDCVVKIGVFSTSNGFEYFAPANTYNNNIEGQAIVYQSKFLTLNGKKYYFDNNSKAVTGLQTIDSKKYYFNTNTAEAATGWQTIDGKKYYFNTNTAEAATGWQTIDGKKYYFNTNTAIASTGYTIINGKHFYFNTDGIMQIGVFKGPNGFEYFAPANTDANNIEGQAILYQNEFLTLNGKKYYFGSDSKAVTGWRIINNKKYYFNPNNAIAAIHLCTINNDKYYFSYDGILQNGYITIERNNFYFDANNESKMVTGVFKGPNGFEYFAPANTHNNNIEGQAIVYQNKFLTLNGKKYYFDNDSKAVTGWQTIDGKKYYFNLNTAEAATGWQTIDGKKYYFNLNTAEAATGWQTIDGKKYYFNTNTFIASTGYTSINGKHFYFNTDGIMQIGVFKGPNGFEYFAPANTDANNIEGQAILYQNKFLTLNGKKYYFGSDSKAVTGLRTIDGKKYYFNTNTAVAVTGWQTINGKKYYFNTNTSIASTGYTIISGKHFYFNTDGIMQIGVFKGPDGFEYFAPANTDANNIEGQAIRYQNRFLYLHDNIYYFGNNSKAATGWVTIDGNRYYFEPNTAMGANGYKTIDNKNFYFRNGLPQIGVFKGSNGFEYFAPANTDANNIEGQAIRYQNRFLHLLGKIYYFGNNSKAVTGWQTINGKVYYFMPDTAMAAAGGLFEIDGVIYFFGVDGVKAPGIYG
- Experimental protocol: SPR (Biacore 3000), VHH over immobilized TcdA, 1:1 fit
This section presents binders with their documented Kd values.
Recorded endpoint: Kd (nM)

[[record]]
binder = "A26.8-Q101K,T103R (VHH, not shown: small tags and cut ends) VHH: QVKLEESGGGLVQAGGSLRLSCAASERTFSRYPVAWFRQAPGAEREFVAVISSTGTSTYYADSVKGRFTISRDNAKVTVYLQMNNLKREDTAVYFCAVNSKRRRLQDPNEYDYWGQGTQVTVSS"
value_reported = 4.2

[[record]]
binder = "A26.8 VHH mutant D107R (VHH, not shown: small tags and cut ends) VHH: QVKLEESGGGLVQAGGSLRLSCAASERTFSRYPVAWFRQAPGAEREFVAVISSTGTSTYYADSVKGRFTISRDNAKVTVYLQMNNLKREDTAVYFCAVNSQRTRLQRPNEYDYWGQGTQVTVSS"
value_reported = 19

[[record]]
binder = "A26.8-T56R, T103K (VHH, not shown: small tags and cut ends) VHH: QVKLEESGGGLVQAGGSLRLSCAASERTFSRYPVAWFRQAPGAEREFVAVISSTGRSTYYADSVKGRFTISRDNAKVTVYLQMNNLKREDTAVYFCAVNSQRKRLQDPNEYDYWGQGTQVTVSS"
value_reported = 3.44

[[record]]
binder = "A26.8-T56R, Q101K, T103K (VHH, not shown: small tags and cut ends) VHH: QVKLEESGGGLVQAGGSLRLSCAASERTFSRYPVAWFRQAPGAEREFVAVISSTGRSTYYADSVKGRFTISRDNAKVTVYLQMNNLKREDTAVYFCAVNSKRKRLQDPNEYDYWGQGTQVTVSS"
value_reported = 3.19

